TEST_TARGET: HLA-A*1101 (human)
ASSAY_DETAILS: competition with 125I-labelled standard peptide 940.06 for purified HLA, gel filtration
MEASUREMENT_CONTEXT: scale: ratio
VALUE_TYPE: binding affinity ratio

I. CSPSCPLER (modifications not checked) [PAP 347 …]
II. DMSLLKNR (modifications not checked) [PSA 98 DMSLLKNR]
[in] Identify the item whose binding affinity ratio is the smaller number: I or II API: response body contains the label of the selected item.
[out] II

Ref: patent US20070020327A1
